FYI, the data here is from patent US8598210B2.

Experimental target: Full-length recombinant human EGLN-3 (His-MBP-TVMV-EGLN-3 fusion) (Homo sapiens (Human))
Sequence (Q9H6Z9 whole entry, the tested form may be a part): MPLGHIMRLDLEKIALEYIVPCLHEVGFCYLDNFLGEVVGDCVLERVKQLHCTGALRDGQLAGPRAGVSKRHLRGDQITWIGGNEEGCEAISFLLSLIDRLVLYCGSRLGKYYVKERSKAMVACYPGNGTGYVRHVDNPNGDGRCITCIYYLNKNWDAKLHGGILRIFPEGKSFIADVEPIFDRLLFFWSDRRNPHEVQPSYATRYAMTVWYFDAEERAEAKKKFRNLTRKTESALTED
Assay summary: EGLN-3 enzyme activity assay (MALDI-TOF MS)
Type: biochemical
Particulars: read-out: EGLIN3 IC50
pIC50: −log10 of the molar value.
Decision: pIC50 >= 6 yields fulfilled, all other cases yield not fulfilled.

Please review the following examples before continuing.
Molecule smiles: O=C(O)CNC(=O)c1ncc(-c2ccccc2Cl)cc1O
Assigned class: fulfilled

Molecule smiles: Cc1ccc(-c2cnc(C(=O)NCC(=O)O)c(O)c2)cc1
Assigned class: fulfilled

Molecule smiles: N#Cc1ccc(-c2cnc(C(=O)NCC(=O)O)c(O)c2)cc1
Assigned class: fulfilled

Molecule smiles: COC(=O)CNC(=O)c1ncc(-c2ccc(C)cc2)cc1O
Assigned class: not fulfilled

Molecule smiles: COC(=O)CNC(=O)c1ncc(-c2cccc(Cl)c2)cc1O
Assigned class: not fulfilled

Here is the next item to consider.
**Query** // inclusive: pIC50 at least 6? input: COC(=O)CNC(=O)c1ncc(-c2ccccc2Cl)cc1O
**Result** not fulfilled

====

Experimental target: Recombinant human EGLN-1-179/426 (Homo sapiens (Human))
Assay summary: EGLN-1 Activity Assay (MALDI-TOF MS)
Particulars: read-out: EGLIN1 IC50
Reported pIC50 values are given for each entry in this list.
The quantity pIC50 is defined as the negative base-10 logarithm of the molar concentration.

**Query** Any idea what pIC50 was measured for CC(C)Oc1ccc(-c2cnc(C(=O)NCC(=O)O)c(O)c2)cc1 ?
**Result** 5.80

**Query** Let us now turn to Cc1ccc(-c2ccc(C(=O)NCC(=O)O)c(O)c2)cc1
**Result** 4.70

**Query** Let us now turn to COC(=O)CNC(=O)c1ncc(-c2ccc(Cl)cc2)cc1O
**Result** 5.43

====

Experimental target: Recombinant human EGLN-1-179/426 (Homo sapiens (Human), UniProt Q9GZT9)
Sequence (Q9GZT9 179-426): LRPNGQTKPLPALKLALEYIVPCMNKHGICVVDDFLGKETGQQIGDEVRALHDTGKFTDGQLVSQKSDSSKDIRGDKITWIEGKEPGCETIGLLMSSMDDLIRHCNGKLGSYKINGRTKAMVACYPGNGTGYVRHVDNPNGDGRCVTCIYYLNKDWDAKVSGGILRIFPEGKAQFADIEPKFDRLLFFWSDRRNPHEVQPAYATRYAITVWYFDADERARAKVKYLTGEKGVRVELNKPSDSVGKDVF
Assay summary: EGLN-1 Activity Assay (MALDI-TOF MS)
Particulars: read-out: EGLIN1 IC50
Experimental: Hydroxylated peptide product is identified from substrate by the gain of 16 Da. Data defined as percent conversion of substrate to product is analyzed in GraphPad Prism 4 to calculate IC50 values.
Reported IC50 values are given for each entry in this list.
Note: unit nM is implicit; provide only the numeric part.

Molecule smiles: O=C(O)CNC(=O)c1ncc(-c2cccc(C(=O)N3CCCC3)c2)cc1O
Meas value: 300
//
Molecule smiles: O=C(O)CNC(=O)c1ncc(-c2cccc(-c3nn[nH]n3)c2)cc1O
Meas value: 400

**Query** Any idea what IC50 was measured for COC(=O)CNC(=O)c1ncc(-c2cccc(C(N)=O)c2)cc1O ?
**Result** 11200

**Query** Let us now turn to Cc1ccc(Cl)cc1-c1cnc(C(=O)NCC(=O)O)c(O)c1
**Result** 2500

**Query** Let us now turn to CC(C)c1ccc(-c2cnc(C(=O)NCC(=O)O)c(O)c2)cc1
**Result** 440

**Query** Let us now turn to COC(=O)CNC(=O)c1ncc(-c2ccc(C)cc2)cc1O
**Result** 4100

**Query** Let us now turn to COC(=O)CNC(=O)c1ncc(-c2cccc(C(=O)N3CCCC3)c2)cc1O
**Result** 2500

**Query** Let us now turn to COC(=O)CNC(=O)c1ncc(-c2cccc(Cl)c2)cc1O
**Result** 2800

**Query** Let us now turn to N#Cc1cccc(-c2cnc(C(=O)NCC(=O)O)c(O)c2)c1
**Result** 190
